The measured values listed here are drawn from PubChem BioAssay (NCI).

Entries and their measured TGI follow.
System: OVCAR-8 ovarian
assay-explanation: NCI tumour cell line growth inhibition, 48 h

[[record]]
molecule = "CC(=O)OC1COC(N2C(=O)C(=O)c3c(C)cc(Cl)nc32)C(OC(C)=O)C1OC(C)=O (stereo unspecified)"
measured_metric = "TGI"
result = "> 100 µM"

[[record]]
molecule = "COc1ccccc1/C=C1\\COc2ccc(O)c(O)c2C1=O"
measured_metric = "TGI"
result = "> 100 µM"

[[record]]
molecule = "COC(c1ccsc1)C(C#N)(C#N)N=Cc1ccsc1 (stereo unspecified)"
measured_metric = "TGI"
result = "49.9 µM"

[[record]]
molecule = "N#CCCNCCN(CCN(C(=O)Nc1ccccc1)c1ccccc1)C(=O)Nc1ccccc1"
measured_metric = "TGI"
result = "> 100 µM"

[[record]]
molecule = "Cc1ccc(S(=O)(=O)NC(=O)NC(Cc2c[nH]c3ccccc23)C(=O)O)cc1 (stereo unspecified)"
measured_metric = "TGI"
result = "> 100 µM"

[[record]]
molecule = "COc1ccc(CCNc2nc3ccccc3c3[nH]c4ccccc4c23)cc1OC"
measured_metric = "TGI"
result = "5.54 µM"


In: State the recorded TGI for this entry: `[O-][n+]1onc2c3nn(-c4ccccc4)nc3ccc21`
Out: > 100 µM

In: State the recorded TGI for this entry: C[N+](C)(C)CC(=O)N/N=C(/C=C/c1ccccc1)CC1OC(=O)c2ccccc21 (stereo unspecified)
Out: > 100 µM

In: State the recorded TGI for this entry: `N/C(=N\N=C\c1ccc2c(c1)OCO2)NO`
Out: 40 µM

In: State the recorded TGI for this entry: `O=C(c1ccccc1)c1nnn(Cc2cccc(Cl)c2)c1C(=O)c1ccccc1`
Out: > 100 µM

====

Test system: RXF 393 renal
assay-explanation: NCI tumour cell line growth inhibition, 48 h
measured-metric: TGI

Completed entries (count: 5):
[[record]]
molecule = "CC1(CCCC2(C)CCNC2=O)OCCO1 (stereo unspecified)"
measured_metric = "TGI"
result = "> 10 µM"

[[record]]
molecule = "CC[C@]1(O)C[C@@H]2CN(Cc3c([nH]c4ccccc34)[C@@](C(=O)OC)(c3cc4c(cc3OC)N(C)[C@H]3[C@@](O)(C(=O)OC)[C@H](OC(C)=O)[C@]5(CC)[C@@H]6C[C@@H]6CN6CC[C@]43[C@@H]65)C2)C1"
measured_metric = "TGI"
result = "> 4.38 µM"

[[record]]
molecule = "CCc1nc(N)nc(N)c1-c1ccc(Cl)cc1"
measured_metric = "TGI"
result = "> 100 µM"

[[record]]
molecule = "CCCSc1cc(Cl)c(C)cc1S(=O)(=O)n1ccnc1OCCCN(C)C"
measured_metric = "TGI"
result = "> 100 µM"

[[record]]
molecule = "O=C1C=Cc2c(Cl)sc(Cl)c21"
measured_metric = "TGI"
result = "4.28 µM"


# context switch: different molecule, same TGI
In: State the recorded TGI for this entry: `CCCCc1ccc2nc(NC(=O)OC)[nH]c2c1`
Out: 20.1 µM

====

System: A498 renal
assay-explanation: NCI tumour cell line growth inhibition, 48 h; in the data active means GI50 below about 0.43 µM; inactive means the rest
Write down one outcome, taken from active, inactive

Sample answers from the record:
[[record]]
molecule = "FC(F)(F)c1ccc2nc(-c3nc(-c4ccccc4)n4ccccc34)[nH]c2c1"
group = "inactive"

[[record]]
molecule = "Cn1cc(-c2ccc3cc(-c4ccc(CC(=O)Nc5cc(C(C)(C)C)nn5C)cc4)cnc3c2)cn1"
group = "active"

[[record]]
molecule = "CC/C(=C(\\c1ccccc1)c1ccc(OCCN(C)C)cc1)c1ccccc1"
group = "inactive"

[[record]]
molecule = "Cc1c(CNc2ccc(Cl)c(C(=O)NC(CC(=O)O)C(=O)O)c2)ccc2nc(N)nc(N)c12 (stereo unspecified)"
group = "inactive"

[[record]]
molecule = "O=c1ccc2nc(-c3ccccc3)nn(-c3ccccc3)c-2c1"
group = "inactive"


Query molecule follows.
In: Answer briefly: the call reported for COc1ccc(C(=O)CC2(O)C(=O)Nc3c(Cl)ccc(Cl)c32)cc1 (stereo unspecified) in this assay.
Out: inactive

====

Test system: UACC-62 melanoma
assay-explanation: NCI tumour cell line growth inhibition, 48 h
Entries and their measured TGI follow.
// return numeric value only (unit: µM, not printed)

Completed entries (count: 3):
[[record]]
structure_smiles_string = "COc1cc(-c2cc(-c3ccc(N(C)C)cc3)nc(N3CCC(O)CC3)c2C#N)cc(OC)c1OC"
quantitative_readout = 0.741

[[record]]
structure_smiles_string = "CC1(C)CCC[C@]2(C)[C@@H]1CC[C@@]13O[C@@H]1C1=C(CO)C(=O)O[C@]14O[C@@H]4[C@@H]23"
quantitative_readout = 37.7

[[record]]
structure_smiles_string = "C(=N\\Nc1ncc(-c2cc3cc4c(cc3o2)OCO4)s1)/c1c[nH]c2ccccc12"
quantitative_readout = 3.72


In: State the recorded TGI for this entry: `N#Cc1c([N+](=O)[O-])cc(C(F)(F)F)cc1[N+](=O)[O-]`
Out: 12.2

====

System: SNB-75 CNS
assay-explanation: NCI tumour cell line growth inhibition, 48 h
Entries and their measured TGI follow.
// return numeric value only (unit: µM, not printed)

Completed entries (count: 3):
[[record]]
compound = "CCC12C=CCN3CC[C@]4(C(=C(C(=O)OC)[C@@H]1Nc1ncnc5c1ncn5C1OC(COC(C)=O)C(OC(C)=O)C1OC(C)=O)Nc1ccccc14)C32 (some centres undefined)"
unit_name = "µM"
quantitative_readout = 7.03

[[record]]
compound = "C=C1C(=O)OC(CCCCCCCC)C1C(=O)O (centres undefined)"
unit_name = "µM"
quantitative_readout = 34.6

[[record]]
compound = "CCN(CC)CCN(C)CC(C)(C)C(=O)/C=C/c1ccccc1"
unit_name = "µM"
quantitative_readout = 18.3


In: State the recorded TGI for this entry: `CCN(CC)CCCCCCCCNc1c2ccc(Cl)cc2nc2ccc(OC)cc12`
Out: 3.15

In: State the recorded TGI for this entry: C=C1C(=O)OC2C1C(OC(=O)/C(=C/C)COC(C)=O)CC1(CO1)C1C(OC(=O)/C(=C/C)CO)C=C(C)C21 (centres undefined)
Out: 15.6

In: State the recorded TGI for this entry: `O=C(Nc1ccc(Cl)c(Cl)c1)Nc1ccc(Cl)c([N+](=O)[O-])c1`
Out: 24.4

In: State the recorded TGI for this entry: `CCOC(=O)C(C(=O)c1ccccc1-c1ccccc1C(=O)O)=P(c1ccccc1)(c1ccccc1)c1ccccc1`
Out: 47.8

====

Test system: CAKI-1 renal
assay-explanation: NCI tumour cell line growth inhibition, 48 h; in the data active = GI50 below about 0.43 µM; inactive = the rest
Write down one outcome, taken from active, inactive

Sample answers from the record:
[[record]]
structure_smiles_string = "N#Cc1c(N)nn(C(=O)c2ccc(NC(=O)c3ccccn3)cc2)c1-c1ccc(Cl)cc1"
group = "inactive"

[[record]]
structure_smiles_string = "Cc1cc2c(-c3nc4ccccc4[nH]3)c(O)c(O)cc2c(O)c1-c1c(C)cc2c(-c3nc4ccccc4[nH]3)c(O)c(O)cc2c1O"
group = "active"

[[record]]
structure_smiles_string = "c1ccc([CH2][Sn]([CH2]c2ccccc2)([S]c2cccc3cccnc23)[S]c2cccc3cccnc23)cc1"
group = "active"


In: Answer briefly: the call reported for `COc1ccc(/C=C2/SC(=Nc3c(C)nn(-c4ccccc4)c3N)NC2=O)cc1` in this assay.
Out: inactive

In: Answer briefly: the call reported for `COc1ccc(C(=O)c2cc3c(N)c(C(=O)Nc4cccc(Cl)c4)sc3nc2C)cc1` in this assay.
Out: inactive

====

Tested on: CAKI-1 renal
assay-explanation: NCI tumour cell line growth inhibition, 48 h; in the data active = GI50 below about 0.43 µM; inactive = the rest
Write down one outcome, taken from active, inactive

Sample answers from the record:
[[record]]
compound = "COc1ccc(C(=O)/C=C/c2ccc(Cl)cc2)cc1S(N)(=O)=O"
group = "inactive"

[[record]]
compound = "CCOC(=O)c1cnc2ccc(Cl)cc2c1NCCCN(C)C"
group = "inactive"

[[record]]
compound = "CC[C@]1(O)C[C@@H]2CN(Cc3c([nH]c4ccccc34)[C@@](C(=O)OC)(c3cc4c(cc3OC)N(C)[C@H]3[C@@](O)(C(=O)OC)[C@H](OC(C)=O)[C@]5(CC)[C@@H]6C[C@@H]6CN6CC[C@]43[C@@H]65)C2)C1"
group = "inactive"


In: Answer briefly: the call reported for `COc1ccccc1/C=C1\COc2ccc(O)c(O)c2C1=O` in this assay.
Out: inactive

====

Test system: MALME-3M melanoma
assay-explanation: NCI tumour cell line growth inhibition, 48 h
Entries and their measured TGI follow.

Completed entries (count: 4):
[[record]]
molecule = "O=C1Cc2c(-c3ccc(Cl)cc3)cc(-c3ccccc3)nc2-c2ccccc2N1"
measured_metric = "TGI"
result = "> 64 µM"

[[record]]
molecule = "COc1cc([C@@H]2c3cc4c(cc3[C@H](OC3OC5COC(c6ccccc6)OC5C(O)C3O)[C@H]3COC(=O)[C@H]23)OCO4)cc(OC)c1OC (stereo not given in full)"
measured_metric = "TGI"
result = "4.89 µM"

[[record]]
molecule = "CC1CN(CCO)CC(C)O1 (stereo not given)"
measured_metric = "TGI"
result = "> 100 µM"

[[record]]
molecule = "CCCC(Sc1nc(N)nc2nc[nH]c12)C(=O)O (stereo not given)"
measured_metric = "TGI"
result = "> 100 µM"


# context switch: different molecule, same TGI
In: Hi! What's the reported TGI for `CC(C)(C)c1cc(C(O)(C(=O)O)C(=O)O)cc(C(C)(C)C)c1O` on MALME-3M melanoma?
Out: > 100 µM
